// reported Ki per item
biological target: UniProtKB P35414
Sequence (P35414 whole entry): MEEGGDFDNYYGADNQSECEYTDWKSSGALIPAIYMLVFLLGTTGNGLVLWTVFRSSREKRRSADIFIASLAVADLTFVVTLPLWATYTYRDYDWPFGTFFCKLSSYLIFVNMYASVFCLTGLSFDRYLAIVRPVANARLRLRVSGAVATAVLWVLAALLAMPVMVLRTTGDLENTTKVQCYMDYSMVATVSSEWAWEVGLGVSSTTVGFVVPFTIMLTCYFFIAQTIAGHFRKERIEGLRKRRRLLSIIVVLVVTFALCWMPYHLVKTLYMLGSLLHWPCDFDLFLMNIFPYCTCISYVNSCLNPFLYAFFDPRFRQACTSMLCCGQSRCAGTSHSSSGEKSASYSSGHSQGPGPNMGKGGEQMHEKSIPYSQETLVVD
RESULT TYPE: Ki (nM)

| QUERY SMILES | VALUE MEASURED |
| --- | --- |
| CCN(CC)c1ccc2c(-c3ccc(S(=O)(=O)NCCCCCCCCCCCCNC(=O)NCCCC[C@H](NC(=O)Cc4csc(=N)n4C)C(=O)N[C@@H](Cc4cn(Cc5ccccc5)cn4)C(=O)NC4CC[N+](C)(C)CC4)cc3S(=O)(=O)O)c3ccc(=[N+](CC)CC)cc-3oc2c1 | 3000 |
| CCN(CC)c1ccc(C(=C2C=CC(=[N+](CC)CC)C=C2)c2ccc(S(=O)(=O)NCCCC[C@H](NC(=O)Cc3csc(=N)n3C)C(=O)N[C@@H](Cc3cn(Cc4ccccc4)c[n+]3C)C(=O)NC3CCN(C)CC3)cc2S(=O)(=O)[O-])cc1.O=C(O)C(F)(F)F.O=C(O)C(F)(F)F.O=C([O-])C(F)(F)F | 89 |
| CCN(CC)c1ccc2c(-c3ccc(S(=O)(=O)NCCCCCCNC(=O)NCCCC[C@H](NC(=O)Cc4csc(=N)n4C)C(=O)N[C@@H](Cc4cn(Cc5ccccc5)c[n+]4C)C(=O)NC4CCN(C)CC4)cc3S(=O)(=O)[O-])c3ccc(=[N+](CC)CC)cc-3oc2c1 | 310 |

###

biological target: Apelin receptor (Rattus norvegicus, UniProt Q9JHG3); assay: Agonist activity at rat apelin receptor expressed in CHO cell membranes coexpressing EGFP assessed as inhibition of forskolin-induced cAMP production after 30 mins by fluorescence analysis
Sequence (Q9JHG3 whole entry): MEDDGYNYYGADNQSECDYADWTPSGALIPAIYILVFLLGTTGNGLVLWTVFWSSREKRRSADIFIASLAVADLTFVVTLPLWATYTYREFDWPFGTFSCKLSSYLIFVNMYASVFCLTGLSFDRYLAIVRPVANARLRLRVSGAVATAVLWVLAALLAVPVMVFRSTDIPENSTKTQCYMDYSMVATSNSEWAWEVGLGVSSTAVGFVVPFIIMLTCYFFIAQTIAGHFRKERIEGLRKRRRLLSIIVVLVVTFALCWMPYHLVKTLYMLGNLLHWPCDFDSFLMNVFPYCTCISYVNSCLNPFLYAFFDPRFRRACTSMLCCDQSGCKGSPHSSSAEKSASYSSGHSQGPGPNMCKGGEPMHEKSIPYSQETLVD
pIC50: −log10 of the molar value.
// reported pIC50 per item
RESULT TYPE: pIC50

| QUERY SMILES | RESULT TYPE | VALUE MEASURED |
| --- | --- | --- |
| CCN(CC)c1ccc(C(=C2C=CC(=[N+](CC)CC)C=C2)c2ccc(S(=O)(=O)NCCCC[C@H](NC(=O)Cc3csc(=N)n3C)C(=O)N[C@@H](Cc3cn(Cc4ccccc4)c[n+]3C)C(=O)NC3CCN(C)CC3)cc2S(=O)(=O)[O-])cc1.O=C(O)C(F)(F)F.O=C(O)C(F)(F)F.O=C([O-])C(F)(F)F | pIC50 | 5.77 |
| CCN(CC)c1ccc2c(-c3ccc(S(=O)(=O)NCCCC[C@H](NC(=O)Cc4csc(=N)n4C)C(=O)N[C@@H](Cc4cn(Cc5ccccc5)c[n+]4C)C(=O)NC4CCN(C)CC4)cc3S(=O)(=O)[O-])c3ccc(=[N+](CC)CC)cc-3oc2c1.O=C(O)C(F)(F)F.O=C(O)C(F)(F)F.O=C([O-])C(F)(F)F | pIC50 | 5.52 |
| CCN(CC)c1ccc2c(-c3ccc(S(=O)(=O)NCCCCCCCCCCCCNC(=O)NCCCC[C@H](NC(=O)Cc4csc(=N)n4C)C(=O)N[C@@H](Cc4cn(Cc5ccccc5)c[n+]4C)C(=O)NC4CCN(C)CC4)cc3S(=O)(=O)O)c3ccc(=[N+](CC)CC)cc-3oc2c1 | pIC50 | 5.37 |
| CSCC[C@H](NC(=O)[C@@H]1CCCN1C(=O)CNC(=O)[C@H](CCCCN)NC(=O)[C@H](Cc1cnc[nH]1)NC(=O)[C@H](CO)NC(=O)[C@H](CC(C)C)NC(=O)[C@H](CCCNC(=N)N)NC(=O)[C@@H]1CCCN1C(=O)[C@H](CCCNC(=N)N)NC(=O)[C@H](CCC(N)=O)NC(=O)[C@H](CCCNC(=N)N)NC(=O)[C@H](CCCNC(=N)N)NC(=O)[C@H](Cc1ccccc1)NC(=O)[C@@H](N)CCCCN)C(=O)N1CCC[C@H]1C(=O)N[C@@H](Cc1ccccc1)C(=O)O | pIC50 | 8.85 |

###

target: Apelin receptor (Rattus norvegicus) (UniProt Q9JHG3); assay: Agonist activity at rat apelin receptor expressed in CHO cell membranes coexpressing EGFP assessed as inhibition of forskolin-induced cAMP production after 30 mins by fluorescence analysis relative to control; assay type: functional, cell-based
Sequence (Q9JHG3 whole entry): as the sequence (Q9JHG3 whole entry) above

| QUERY SMILES | Imax (%) |
| --- | --- |
| CCN(CC)c1ccc2c(-c3ccc(S(=O)(=O)NCCCCCCCCCCCCNC(=O)NCCCC[C@H](NC(=O)Cc4csc(=N)n4C)C(=O)N[C@@H](Cc4cn(Cc5ccccc5)c[n+]4C)C(=O)NC4CCN(C)CC4)cc3S(=O)(=O)[O-])c3ccc(=[N+](CC)CC)cc-3oc2c1 | 100 |
| CSCC[C@H](NC(=O)[C@@H]1CCCN1C(=O)CNC(=O)[C@H](CCCCN)NC(=O)[C@H](Cc1cnc[nH]1)NC(=O)[C@H](CO)NC(=O)[C@H](CC(C)C)NC(=O)[C@H](CCCNC(=N)N)NC(=O)[C@@H]1CCCN1C(=O)[C@H](CCCNC(=N)N)NC(=O)[C@H](CCC(N)=O)NC(=O)[C@H](CCCNC(=N)N)NC(=O)[C@H](CCCNC(=N)N)NC(=O)[C@H](Cc1ccccc1)NC(=O)[C@@H](N)CCCCN)C(=O)N1CCC[C@H]1C(=O)N[C@@H](Cc1ccccc1)C(=O)O | 85 |
| CCN(CC)c1ccc2c(-c3ccc(S(=O)(=O)NCCCC[C@H](NC(=O)Cc4csc(=N)n4C)C(=O)N[C@@H](Cc4cn(Cc5ccccc5)c[n+]4C)C(=O)NC4CCN(C)CC4)cc3S(=O)(=O)[O-])c3ccc(=[N+](CC)CC)cc-3oc2c1.O=C(O)C(F)(F)F.O=C(O)C(F)(F)F.O=C([O-])C(F)(F)F | 77 |
| CCN(CC)c1ccc(C(=C2C=CC(=[N+](CC)CC)C=C2)c2ccc(S(=O)(=O)NCCCC[C@H](NC(=O)Cc3csc(=N)n3C)C(=O)N[C@@H](Cc3cn(Cc4ccccc4)c[n+]3C)C(=O)NC3CCN(C)CC3)cc2S(=O)(=O)[O-])cc1.O=C(O)C(F)(F)F.O=C(O)C(F)(F)F.O=C([O-])C(F)(F)F | 69 |
